// data source = PubChem BioAssay AID686978

experiment: qHTS for Inhibitors of human tyrosyl-DNA phosphodiesterase 1 (TDP1): qHTS in cells in absence of CPT; conditions: DT40 Tdp1-/- hTDP1 cells, no CPT, ATP luminescence, 48 h; also: nearly all actives have a fitted effect of over 55% in size
Screen size: about 420,000 compounds; about 64,000 (15%) were called active. Another 27% or so got no clear call; they are omitted. Calls follow the shape of the dose curve; as a rule, active = well fitted inhibition curve with a large enough effect; inconclusive = small, poorly fitted or top-dose-only effect; inactive = flat fitted curve, though single readings scatter. Only a sample is shown.
Thanks in advance; please answer with one of these: active, inactive

compound	class.name
O=C(c1cccc(-n2cccc2)c1)N1CCN(S(=O)(=O)c2ccc(F)cc2)CC1	inactive
CCOc1ccc(N/C=C/C(=O)c2ccccc2)cc1	inactive
CCOc1cccc2cc(C(=O)OCC(=O)Nc3c(C)cccc3CC)c(=O)oc12	inactive
Cn1cccc1/C=C1\SC(=O)N(CC(=O)Nc2ccc(F)cc2)C1=O	inactive
CCOC(=O)c1c(NC(=O)c2ccc(S(=O)(=O)N3CCCC(C)C3)cc2)sc2c1CCN(C(C)C)C2 (stereo not drawn)	active

Consider the additional compound presented here.
Input line: What call does the record list for COc1ccc(CCNC(=O)CCNS(=O)(=O)c2cc(Br)cnc2N)cc1OC ?
Output line: inactive
